system: MCF10A; assay: one-nucleolus phenotype percent effect (relative to siNT 0% and siNOL11 100%); higher = more cells with one nucleolus (ribosome biogenesis inhibition); details: 20 nM; 72 h
reported_endpoint: one-nucleolus phenotype percent effect (%)
Form entry: value (%) — number only.

Reference set, count: 4
| seq_string | reported_endpoint | measured_value |
| --- | --- | --- |
| UGACUGAGCUUCUCCCCACAG [hsa-miR-6857-3p] | one-nucleolus phenotype percent effect | 32.8 |
| UCAUUUAUCUGUUGGGAAGCUA [hsa-miR-4729] | one-nucleolus phenotype percent effect | 1.2 |
| AUAUACAGGGGGAGACUCUCAU [hsa-miR-1185-2-3p] | one-nucleolus phenotype percent effect | 21.3 |
| AGGGGGCGCAGUCACUGACGUG [hsa-miR-4697-5p] | one-nucleolus phenotype percent effect | 5.16 |

// ACCUGGACCCAGCGUAGACAAAG [hsa-miR-3690] : one-nucleolus phenotype percent effect value = -25.7

// UGAAUGGUAAAGCGAUGUCACA [hsa-miR-4790-3p] : one-nucleolus phenotype percent effect value = 71.6

====

test system: MCF10A; assay: 5+ nucleoli phenotype percent effect (relative to siNT 0% and siKIF11 100%); higher = more cells with five or more nucleoli; conditions: 20 nM; 72 h
Below, each of the sequences is paired with its reported 5+ nucleoli phenotype percent effect value.
Form entry: value (%) — number only.

| seq_string | readout_units | 5+ nucleoli phenotype percent effect |
| --- | --- | --- |
| ACGGGGAGUCAGGCAGUGGUGGA [hsa-miR-6777-5p] | % | -32.1 |
| UGGGAGGGGAGAGGCAGCAAGCA [hsa-miR-4728-5p] | % | -29.9 |
| GAUAUUCAGAGGCUAGGUGG [hsa-miR-6074] | % | -1.31 |
| UAGCAAGAGAACCAUUACCAUU [hsa-miR-451b] | % | 3.42 |
| UCCCCUUCUGCAGGCCUGCUGG [hsa-miR-3127-3p] | % | 34.9 |
| CUCCUGACUCCAGGUCCUGUGU [hsa-miR-378a-5p] | % | -8.66 |
| UGAAUGGUAAAGCGAUGUCACA [hsa-miR-4790-3p] | % | -42.5 |
| UGGUAGAGCUGAGGACA [hsa-miR-4451] | % | 9.42 |

UGAGGGACAGAUGCCAGAAGCA [hsa-miR-3126-5p] on MCF10A gives 5+ nucleoli phenotype percent effect = -33.3

CUAUACAACCUACUGCCUUCCC [hsa-let-7b-3p] on MCF10A gives 5+ nucleoli phenotype percent effect = -18.8

CGCAGGGGCCGGGUGCUCACCG [hsa-miR-1909-3p] on MCF10A gives 5+ nucleoli phenotype percent effect = 13.4

CGCAGACAAUGCCUACUGGCCUA [hsa-miR-3166] on MCF10A gives 5+ nucleoli phenotype percent effect = -21.5

UCGUGUCUUGUGUUGCAGCCGG [hsa-miR-187-3p] on MCF10A gives 5+ nucleoli phenotype percent effect = -1.49

UGUUGGGAUUCAGCAGGACCAU [hsa-miR-4425] on MCF10A gives 5+ nucleoli phenotype percent effect = -29

GAAGGACCUGCACCUUCG [hsa-miR-6816-3p] on MCF10A gives 5+ nucleoli phenotype percent effect = -36.7

UACAUGGAUGGAAACCUUCAAGC [hsa-miR-4802-3p] on MCF10A gives 5+ nucleoli phenotype percent effect = -3.05

AAAGGAUUCUGCUGUCGGUCCCACU [hsa-miR-541-5p] on MCF10A gives 5+ nucleoli phenotype percent effect = -28.2

UCAUCCUCGUCUCCCUCCCAG [hsa-miR-5196-3p] on MCF10A gives 5+ nucleoli phenotype percent effect = -6.21

Where these numbers come from: the supplement of paper PMC10899765
